Parameter pIC50, tested on human Gal-3 (hGal-3) (Homo sapiens (Human), UniProt P17931), listed per item.
Sequence (P17931 whole entry): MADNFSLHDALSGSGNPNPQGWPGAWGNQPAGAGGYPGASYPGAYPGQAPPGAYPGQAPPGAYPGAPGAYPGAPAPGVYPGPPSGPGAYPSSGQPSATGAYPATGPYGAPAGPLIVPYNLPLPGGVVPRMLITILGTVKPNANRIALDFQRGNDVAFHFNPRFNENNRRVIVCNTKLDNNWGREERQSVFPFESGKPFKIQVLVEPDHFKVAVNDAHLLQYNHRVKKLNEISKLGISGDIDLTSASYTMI
Keep it numeric: pIC50 is minus log10 of the concentration in mol/L.

Tell me the measured pIC50 of "Cc1ccc(-c2cn([C@H]3[C@@H](O)[C@@H](CO)O[C@H](Cc4cc(C(C)(C)C)on4)[C@@H]3OCC(=O)O)nn2)c(F)c1F" , please.
7.62

Please answer likewise for "CO[C@@H]1[C@@H](n2cc(-c3cc(F)c(F)c(F)c3)nn2)[C@@H](O)[C@@H](CO)O[C@@H]1Cc1cc(C2(C)CCCC2)on1"
6.60

Also COc1ccc(C2=NOC(C[C@H]3O[C@H](CO)[C@H](O)[C@H](n4cc(-c5cc(F)c(F)c(F)c5)nn4)[C@H]3O)C2)cc1 (stereo partly drawn) , if possible.
6.31

What do you get for CC(C)(C)OC(=O)N1CCC(C2=NOC(C[C@H]3O[C@H](CO)[C@H](O)[C@H](n4cc(-c5cccc(C(F)(F)F)c5)nn4)[C@H]3O)C2)CC1 (stereo partly drawn) ?
5.57

Can you check "CO[C@@H]1[C@@H](n2cc(-c3cc(F)c(F)c(F)c3)nn2)[C@@H](O)[C@@H](CO)O[C@@H]1Cn1cc(C2(C)CCCC2)nn1" next?
6.62

Further, for "CO[C@@H]1[C@@H](n2cc(-c3cc(F)c(F)c(F)c3)nn2)[C@@H](O)[C@@H](CO)O[C@@H]1Cc1cc(C2(OC)CCCC2)no1" ?
6.59

Origin of the recorded values: patent US12319672B2
